Tested on: Escherichia coli IAI1
assay_details: fold change of Cadaverine concentration vs plate DMSO controls (fold change (ratio)); higher = more amine produced, active = hit call of the paper (significant change in both replicates, either direction)
condition_label: incubation time: 27 h, anaerobic, 37 °C
Counter-ions that a name gives are not always drawn.
measurement_type: fold change of Cadaverine concentration

Some compounds with recorded fold change of Cadaverine concentration:
>>> val("C[C@]12CC[C@@H]3c4ccc(O)cc4CC[C@H]3[C@@H]1CC[C@@H]2O [Estradiol-17 beta] (20 µM)")
"1 (inactive)"
>>> val("CC(C)(C)c1ccc(C(O)CCCN2CCC(C(O)(c3ccccc3)c3ccccc3)CC2)cc1 (stereo not drawn) [Terfenadine] (20 µM)")
"1.05 (inactive)"

With those in mind, consider the next compound.
Req: Would you mind telling me what fold change of Cadaverine concentration value was observed for NC[C@@H]1O[C@H](O[C@H]2[C@@H](O)[C@H](O[C@@H]3[C@@H](O)[C@H](N)C[C@H](N)[C@H]3O[C@H]3O[C@H](CN)[C@@H](O)[C@H](O)[C@H]3N)O[C@@H]2CO)[C@H](N)[C@@H](O)[C@@H]1O [Neomycin sulfate] (20 µM) ?
Resp: 0.897 (inactive)
